Tested on: Escherichia coli
measurement_notes: Inhibition of LspA in Escherichia coli CFT073imp4213 harboring outer membrane-permeable mutant assessed as inhibition of bacterial growth
Starred links: 1 amine or outer side, 2 acyl side, 3 side chain; linkers in the order of their positions; H or OH if unused. Non-standard residues stand in square brackets, D forms with d. Residues, ends and D or L forms follow the SMILES beside them. *: point of attachment. X1 = CCCCCC[C@@H](OC[C@@H](C)N[*:1])[C@@H](C)C(=O)[*:2]; Gly(cHept) = N[C@H](C(=O)O)C1CCCCCC1; NMeNva = CCC[C@H](NC)C(=O)O; Dap = NC[C@H](N)C(=O)O; X15 = O=C(O)CCCNCCC*; X12 = NCC(CN)*
// map MIC to label using bin 1: < 0.4 µM; bin 2: ≥ 0.4 µM and < 1 µM; bin 3: ≥ 1 µM

query: Please indicate the class for CCC[C@H]1C(=O)N[C@@H](C2CCCCCC2)C(=O)N[C@@H](CN)C(=O)N[C@@H]([C@H](C)O)C(=O)NCC(=O)O[C@H](CC2CC3CCC2C3)[C@@H](C)C(=O)N1C (stereo in doubt; 26) based on its MIC.
result: bin 1

query: Which MIC band matches CCCCCCN1CCCNC(=O)[C@H]([C@H](C)O)NC(=O)[C@H](CN)NC(=O)[C@H]([C@H](C)CC)NC(=O)[C@H](CC(C)C)N(C)C(=O)[C@@H]1C ?
result: bin 3

query: Form field 'band' for CCCCCCCCCC[C@H]1OC(=O)CNC(=O)[C@H]([C@H](C)O)NC(=O)[C@H](CO)NC(=O)[C@H]([C@@H](C)CC)NC(=O)[C@H](CC(C)C)N(C)C(=O)[C@@H]1C
result: bin 1

query: Please classify: CCCCCC[C@H]1OC(=O)CNC(=O)[C@H]([C@H](C)O)NC(=O)[C@H](CN)NC(=O)[C@H]([C@H](C)CC)NC(=O)[C@H](CC(C)C)N(C)C(=O)[C@@H]1C
result: bin 1

query: Tag the class for CCCCCC[C@H]1OC[C@@H](C)NC(=O)[C@H](COC(CN)CN)NC(=O)[C@H](CN)NC(=O)[C@H](C2CCCCCC2)NC(=O)[C@H](CCC)N(C)C(=O)[C@@H]1C (cyclo([Dap]S(X12)[X1][NMeNva][Gly(cHept)]))
result: bin 2

query: Which of the defined bands does the recorded MIC of CCCCCC[C@H]1OC(=O)CNC(=O)[C@H]([C@H](C)O)NC(=O)[C@H](CN)NC(=O)[C@H]([C@@H](C)OC)NC(=O)[C@H](CC(C)C)N(C)C(=O)[C@@H]1C sit within?
result: bin 3

query: Kindly identify the class of CCCCCCCCCC[C@H]1OC(=O)CNC(=O)[C@H]([C@H](C)O)NC(=O)[C@H](CNC(=N)N)NC(=O)[C@H]([C@@H](C)CC)NC(=O)[C@H](CC(C)C)N(C)C(=O)[C@@H]1C .
result: bin 3

query: Sort into band: CCCCCC[C@H]1OC[C@@H](C)NC(=O)[C@H](COCCCNCCCC(=O)O)NC(=O)[C@H](CN)NC(=O)[C@H](C2CCCCCC2)NC(=O)[C@H](CCC)N(C)C(=O)[C@@H]1C (cyclo([Dap]S(X15)[X1][NMeNva][Gly(cHept)]))
result: bin 2

====

Provide the recorded remaining at 24 h for the entries that follow.
measurement_notes: Stability of the compound in mouse plasma assessed as parent compound remaining after 24 hrs
Assay type: ADME, cell-free
test_parameters: read-out: Stabilty
Starred links: 1 amine or outer side, 2 acyl side, 3 side chain; linkers in the order of their positions; H or OH if unused. Non-standard residues stand in square brackets, D forms with d. Residues, ends and D or L forms follow the SMILES beside them. *: point of attachment. X3 = C[C@H](CO[C@H](CC1CC2(CCC2)C1)[C@@H](C)C(=O)[*:2])N[*:1]; X10 = CCCCCC[C@@H](OC[C@@H](CC)N[*:1])[C@@H](C)C(=O)[*:2]; X8 = CCCCCC[C@@H](O[C@@H](C)CN[*:1])[C@@H](C)C(=O)[*:2]; X7 = CCCCCC[C@@H](O[C@H](C)CN[*:1])[C@@H](C)C(=O)[*:2]; Cyclobutyl(trans-3-NH2) = N[C@H]1C[C@H](*)C1; X4 = CCCCCCN(CCN[*:1])[C@@H](C)C(=O)[*:2]; Gly(cHept) = N[C@H](C(=O)O)C1CCCCCC1; aThr = C[C@H](O)[C@H](N)C(=O)O; NMeL = CN[C@@H](CC(C)C)C(=O)O; Chg = N[C@H](C(=O)O)C1CCCCC1; NMeNva = CCC[C@H](NC)C(=O)O; Dap = NC[C@H](N)C(=O)O; X5 = NCCCNCCC*
Expressed in %, but write only the number.

Looking up CCCCCC[C@H]1OC[C@@H](CC)NC(=O)[C@H]([C@H](C)O)NC(=O)[C@H](CN)NC(=O)[C@H](C2CCCCC2)NC(=O)[C@H](CC(C)C)N(C)C(=O)[C@@H]1C (cyclo([Chg][Dap][aThr][X10][NMeL])) , I see its remaining at 24 h listed as 87

Entry under test: CCCCCC[C@H]1OC[C@H](C)NC(=O)[C@H]([C@H](C)O)NC(=O)[C@H](CN)NC(=O)[C@H](C2CCCCC2)NC(=O)[C@H](CC(C)C)N(C)C(=O)[C@@H]1C . Its remaining at 24 h was 93

Data point: CCCCCC[C@H]1C(=O)N(C)[C@@H](CC(C)C)C(=O)N[C@@H](C2CCCCC2)C(=O)N[C@@H](CN)C(=O)N[C@@H]([C@H](C)O)C(=O)NCCN1C ; remaining at 24 h = 81

Form: molecule = CCC[C@H]1C(=O)N[C@@H](C2CCCCCC2)C(=O)N[C@@H](CN)C(=O)N[C@@H](CO[C@H]2C[C@H](N)C2)C(=O)N[C@H](C)CO[C@H](CC2CC3(CCC3)C2)[C@@H](C)C(=O)N1C (cyclo([Dap]S(Cyclobutyl(trans-3-NH2))[X3][NMeNva][Gly(cHept)])) ; remaining at 24 h = 84

Given item CCCCCC[C@H]1O[C@@H](C)CNC(=O)[C@H]([C@H](C)O)NC(=O)[C@H](CN)NC(=O)[C@H](C2CCCCC2)NC(=O)[C@H](CC(C)C)N(C)C(=O)[C@@H]1C (cyclo([Chg][Dap][aThr][X8][NMeL])) , the value recorded as its remaining at 24 h is 101

Memo: CCCCCC[C@H]1O[C@H](C)CNC(=O)[C@H]([C@H](C)O)NC(=O)[C@H](CN)NC(=O)[C@H](C2CCCCC2)NC(=O)[C@H](CC(C)C)N(C)C(=O)[C@@H]1C (cyclo([Chg][Dap][aThr][X7][NMeL])) , reported remaining at 24 h: 92

// sample CCC[C@H]1C(=O)N[C@@H](C2CCCCCC2)C(=O)N[C@@H](CN)C(=O)N[C@@H](COCCCNCCCN)C(=O)N[C@H](C)CO[C@H](CC2CC3(CCC3)C2)[C@@H](C)C(=O)N1C (cyclo([Dap]S(X5)[X3][NMeNva][Gly(cHept)])) , its remaining at 24 h was 106

Record summary for CCCCCCN1CCNC(=O)[C@H]([C@H](C)O)NC(=O)[C@H](CN)NC(=O)[C@H](C2CCCCC2)NC(=O)[C@H](CC(C)C)N(C)C(=O)[C@@H]1C (cyclo([Chg][Dap][aThr][X4][NMeL])) : reported remaining at 24 h = 112

Given item CCCCCCN1CCCNC(=O)[C@H]([C@H](C)O)NC(=O)[C@H](CN)NC(=O)[C@H]([C@H](C)CC)NC(=O)[C@H](CC(C)C)N(C)C(=O)[C@@H]1C , the value recorded as its remaining at 24 h is 100

====

Record form. Attribute: CLhep predicted. Fill in for each entry.
measurement_notes: Clearance in mouse liver microsomes
Type: ADME, Microsome
Starred links: 1 amine or outer side, 2 acyl side, 3 side chain; linkers in the order of their positions; H or OH if unused. Non-standard residues stand in square brackets, D forms with d. Residues, ends and D or L forms follow the SMILES beside them. *: point of attachment. X6 = C[C@H](CO[C@H](CC1C[C@H]2CC[C@@H](C1)C2)[C@@H](C)C(=O)[*:2])N[*:1]; X3 = C[C@H](CO[C@H](CC1CC2(CCC2)C1)[C@@H](C)C(=O)[*:2])N[*:1]; Cyclobutyl(trans-3-NH2) = N[C@H]1C[C@H](*)C1; Gly(cHept) = N[C@H](C(=O)O)C1CCCCCC1; NMeNva = CCC[C@H](NC)C(=O)O; Dap = NC[C@H](N)C(=O)O
Give your result in mL/min/kg as a bare value.

CLhep predicted reading for CCC[C@H]1C(=O)N[C@@H](C2CCCCCC2)C(=O)N[C@@H](CN)C(=O)N[C@@H](CO[C@H]2C[C@H](N)C2)C(=O)N[C@H](C)CO[C@H](CC2C[C@H]3CC[C@@H](C2)C3)[C@@H](C)C(=O)N1C (stereo partly drawn) (cyclo([Dap]S(Cyclobutyl(trans-3-NH2))[X6][NMeNva][Gly(cHept)])) : 41

So, CCC[C@H]1C(=O)N[C@@H](C2CCCCCC2)C(=O)N[C@@H](CN)C(=O)N[C@@H](CO[C@H]2C[C@H](N)C2)C(=O)N[C@H](C)CO[C@H](CC2CC3(CCC3)C2)[C@@H](C)C(=O)N1C (cyclo([Dap]S(Cyclobutyl(trans-3-NH2))[X3][NMeNva][Gly(cHept)])) ? Its CLhep predicted was 48
